Test system: TA100
PROTOCOL DESCRIPTION: Ames test, strain TA100
Format: cell-based
EXPERIMENTAL SETUP: 0.5 μg/dish
Consider the following compounds; for each one, report its TA100 −S9.
Returns: the value as a bare number; no unit string appended.

I am curious: what TA100 −S9 value has been reported for `O=c1c2cc(F)ccc2[se]n1-c1cccnc1` ?
127.33

Here is the next compound: `O=c1c2ccc(Cl)cc2[se]n1-c1ccncc1`
68.67

For `O=c1c2cc(Cl)ccc2[se]n1-c1ccccn1` then?
121.00

Cool, now `O=c1c2cc(F)ccc2[se]n1-c1ccccn1`
83.00

Also, `C/C(=N\O)c1ccc(-n2[se]c3ccccc3c2=O)cc1` please.
153.67

All figures here come from patent US20060135569A1.
